ASSAY_CONDITIONS: rabbit plasma, 37° C., 30 s, HPLC
Counter-ions that a name gives are not always drawn.
Rule: True for Dissociation percent 30 s not less than 60%, False for anything less.

Below are worked cases with known answers.
COMPOUND: CC(C)c1cccc(C(C)C)c1OC(=O)[C@@H](CCOP(=O)([O-])[O-])C(F)(F)F.[Li+].[Li+]
CATEGORY: False
//
COMPOUND: CC(C)c1cccc(C(C)C)c1OC(=O)[C@@H](F)CCOP(=O)([O-])[O-].[Na+].[Na+]
CATEGORY: False
//
COMPOUND: CC(C)c1cccc(C(C)C)c1OC(=O)[C@H](F)CCN1CCCC1.Cl
CATEGORY: True
//
COMPOUND: CC(C)c1cccc(C(C)C)c1OC(=O)[C@@H](F)CCN1CC1.Cl
CATEGORY: True
//
COMPOUND: CC(C)NCC(CF)C(=O)Oc1c(C(C)C)cccc1C(C)C.CS(=O)(=O)O (racemic)
CATEGORY: False
//
COMPOUND: CC(C)c1cccc(C(C)C)c1OC(=O)C(CF)CP(=O)([O-])[O-].CC(C)c1cccc(C(C)C)c1OC(=O)C(CF)CP(=O)([O-])[O-].CC(C)c1cccc(C(C)C)c1OC(=O)C(CF)CP(=O)([O-])[O-].[Al+3].[Al+3] (racemic)
CATEGORY: False
//
COMPOUND: CC(C)c1cccc(C(C)C)c1OC(=O)C(F)CCC(=O)[O-].[K+] (stereo not drawn)
CATEGORY: True
//
COMPOUND: CC(C)c1cccc(C(C)C)c1OC(=O)C(F)CCN(C)C (racemic) [E1, hydrochloride]
CATEGORY: True

Prompt: In plain terms: is recorded Dissociation percent 30 s at least 60% for CC(C)c1cccc(C(C)C)c1OC(=O)[C@@H](F)CCCN(C)Cc1ccccc1.Cl ?
Completion: True

Prompt: In plain terms: is recorded Dissociation percent 30 s at least 60% for CC(C)c1cccc(C(C)C)c1OC(=O)[C@H](F)CCN(C)C.Cl [E2] ?
Completion: True

Prompt: In plain terms: is recorded Dissociation percent 30 s at least 60% for CC(C)c1cccc(C(C)C)c1OC(=O)[C@@H](CCN(C)C)C(F)(F)F.Cl ?
Completion: True

Prompt: In plain terms: is recorded Dissociation percent 30 s at least 60% for CCN(C)CCC(F)C(=O)Oc1c(C(C)C)cccc1C(C)C.Cl (racemic) ?
Completion: True

----------
System: SD rats
ASSAY_CONDITIONS: TI=LD50/ED50, rat, 3 mg/ml solution
Measured TI Rat values are reported for all entries that follow.

COMPOUND: CC(C)c1cccc(C(C)C)c1OC(=O)[C@H](F)CCN(C)C.Cl [E2]
TI Rat: 3.8

Prompt: Please give the measured TI Rat for this compound: CC(C)c1cccc(C(C)C)c1O
Completion: 5.5

Prompt: Please give the measured TI Rat for this compound: CC(C)c1cccc(C(C)C)c1OC(=O)[C@@H](F)CCOP(=O)([O-])[O-].[Na+].[Na+]
Completion: 3.3

Prompt: Please give the measured TI Rat for this compound: CC(C)c1cccc(C(C)C)c1OC(=O)C(F)CC(=O)[O-].[Na+] (stereo not shown)
Completion: 3.0

----------
ASSAY_CONDITIONS: rabbit plasma, 37° C., 30 s, HPLC
Measured Dissociation percent 30 s values are reported for all entries that follow.
Numbers only here, please. The scale is %.

Here are 3 molecules together with their reported answers.
MOLECULE: CC(C)c1cccc(C(C)C)c1OC(=O)C(F)CC(=O)[O-].[Na+] (stereo not shown) [F7]
UNITS_SYMBOL: %
Dissociation percent 30 s: 72.8

MOLECULE: CC(C)c1cccc(C(C)C)c1OC(=O)C(F)CCOP(=O)([O-])[O-].[K+].[K+] (racemic) [G1]
UNITS_SYMBOL: %
Dissociation percent 30 s: 68.7

MOLECULE: CC(C)c1cccc(C(C)C)c1OC(=O)C(F)C(=O)[O-].[Na+] (stereo not shown) [F8]
UNITS_SYMBOL: %
Dissociation percent 30 s: 70.4

Prompt: Please give the measured Dissociation percent 30 s for this molecule: CC(C)c1cccc(C(C)C)c1OC(=O)C(CCC(=O)[O-])C(F)(F)F.[Li+] (stereo not shown) [F3]
Completion: 47.9

----------
ASSAY_CONDITIONS: rat plasma, 37° C., 5 s, HPLC
Structures can show the parent of a compound that is named as a salt.
READOUT_TYPE: Dissociation percent 5 s (%)
Numbers only here, please. The scale is %.

COMPOUND: CC(C)c1cccc(C(C)C)c1OC(=O)C(F)CCOP(=O)([O-])[O-].[K+].[K+] (racemic)
READOUT_TYPE: Dissociation percent 5 s
MEAS_VALUE: 54.1

COMPOUND: CC(C)c1cccc(C(C)C)c1OC(=O)[C@@H](CCN(C)C)C(F)(F)F.Cl
READOUT_TYPE: Dissociation percent 5 s
MEAS_VALUE: 77.5

COMPOUND: CC(C)c1cccc(C(C)C)c1OC(=O)C(F)CCN(C)C (racemic) [E1, hydrochloride]
READOUT_TYPE: Dissociation percent 5 s
MEAS_VALUE: 75.1

Prompt: Please give the measured Dissociation percent 5 s for this compound: CC(C)c1cccc(C(C)C)c1OC(=O)C(CF)CCCCCCC(=O)[O-].CC(C)c1cccc(C(C)C)c1OC(=O)C(CF)CCCCCCC(=O)[O-].CC(C)c1cccc(C(C)C)c1OC(=O)C(CF)CCCCCCC(=O)[O-].[Al+3] (racemic)
Completion: 34.2

Prompt: Please give the measured Dissociation percent 5 s for this compound: CC(C)c1cccc(C(C)C)c1OC(=O)C(CCC(=O)[O-])C(F)(F)F.[Li+] (stereo not shown)
Completion: 47.4

Prompt: Please give the measured Dissociation percent 5 s for this compound: CC(C)c1cccc(C(C)C)c1OC(=O)C(F)CC(=O)[O-].[Na+] (stereo not shown)
Completion: 58.8

Prompt: Please give the measured Dissociation percent 5 s for this compound: CC(C)c1cccc(C(C)C)c1OC(=O)[C@@H](F)CCCN(C)Cc1ccccc1.Cl
Completion: 72.3

----------
ASSAY_CONDITIONS: rabbit plasma, 37° C., 15 s, HPLC
READOUT_TYPE: Dissociation percent 15 s (%)
Numbers only here, please. The scale is %.

Here are 4 molecules together with their reported answers.
MOLECULE: CC(C)c1cccc(C(C)C)c1OC(=O)[C@@H](F)CCCN(C)Cc1ccccc1.Cl
READOUT_TYPE: Dissociation percent 15 s
MEAS_VALUE: 48.4

MOLECULE: CC(C)c1cccc(C(C)C)c1OC(=O)C(CCC(=O)[O-])C(F)(F)F.[Li+] (centres unmarked)
READOUT_TYPE: Dissociation percent 15 s
MEAS_VALUE: 28.4

MOLECULE: CC(C)c1cccc(C(C)C)c1OC(=O)[C@@H](F)CCN1CC1.Cl
READOUT_TYPE: Dissociation percent 15 s
MEAS_VALUE: 89.4

MOLECULE: CC(C)c1cccc(C(C)C)c1OC(=O)C(F)CCCCCC(=O)[O-].CC(C)c1cccc(C(C)C)c1OC(=O)C(F)CCCCCC(=O)[O-].[Ca+2] (racemic)
READOUT_TYPE: Dissociation percent 15 s
MEAS_VALUE: 48.3

Next molecule, Dissociation percent 15 s to be filled in.
Prompt: Please give the measured Dissociation percent 15 s for this molecule: CC(C)c1cccc(C(C)C)c1OC(=O)C(F)C(=O)[O-].[Na+] (centres unmarked)
Completion: 41.2

----------
ASSAY_CONDITIONS: rat plasma, 37° C., 15 s, HPLC
READOUT_TYPE: Dissociation percent 15 s (%)
Numbers only here, please. The scale is %.

COMPOUND: CC(C)c1cccc(C(C)C)c1OC(=O)C(F)C(=O)[O-].[Na+] (stereo not drawn) [F8]
MEAS_VALUE: 69.3
//
COMPOUND: CC(C)c1cccc(C(C)C)c1OC(=O)C(F)CC(=O)[O-].[Na+] (stereo not drawn) [F7]
MEAS_VALUE: 71.3

Next compound, Dissociation percent 15 s to be filled in.
Prompt: Please give the measured Dissociation percent 15 s for this compound: CC(C)c1cccc(C(C)C)c1OC(=O)[C@@H](F)CCOP(=O)([O-])[O-].[Na+].[Na+] [G2]
Completion: 69.7

----------
Measured Dissociation percent 30 s values are reported for all entries that follow.
ASSAY_CONDITIONS: rabbit plasma, 37° C., 30 s, HPLC
Numbers only here, please. The scale is %.

Here are 2 molecules together with their reported answers.
MOLECULE: CC(C)c1cccc(C(C)C)c1OC(=O)C(F)CCCCCC(=O)[O-].CC(C)c1cccc(C(C)C)c1OC(=O)C(F)CCCCCC(=O)[O-].[Ca+2] (racemic)
UNITS_SYMBOL: %
Dissociation percent 30 s: 61.7

MOLECULE: CC(C)c1cccc(C(C)C)c1OC(=O)C(F)CCCC(=O)[O-].CC(C)c1cccc(C(C)C)c1OC(=O)C(F)CCCC(=O)[O-].[Zn+2] (stereo not drawn)
UNITS_SYMBOL: %
Dissociation percent 30 s: 58.8

Next molecule, Dissociation percent 30 s to be filled in.
Prompt: Please give the measured Dissociation percent 30 s for this molecule: CC(C)c1cccc(C(C)C)c1OC(=O)C(CF)CCCCCCC(=O)[O-].CC(C)c1cccc(C(C)C)c1OC(=O)C(CF)CCCCCCC(=O)[O-].CC(C)c1cccc(C(C)C)c1OC(=O)C(CF)CCCCCCC(=O)[O-].[Al+3] (racemic)
Completion: 58.3
